- System: 885512-296-R-J2-PDC complex spheroid viability;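 further: spheroids exposed to the compounds for one week; percent of tumor spheroid viability relative to DMSO vehicle control wells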
- assay_method_text: Anticancer human tumor 885512-296-R-J2-PDC patient-derived breast carcinoma cell line growth inhibition [GQUAD]
- particulars: second compound 3.16 µM; first compound 3.16 µM; active compounds read low
measured_property: viability, T/C (%)
Give the quantity in %, number only.

# viability, T/C lookup, item COc1cc(C2c3cc4c(cc3C(OC3OC5COC(C)OC5C(O)C3O)C3COC(=O)C23)OCO4)cc(OC)c1O (stereo not given) + CN(C)c1ccc(Nc2c3ccc(NC(=O)CCN4CCCC4)cc3nc3cc(NC(=O)CCN4CCCC4)ccc23)cc1 14.4

How about CC(C)n1c(=O)n(C)c2cnc3cc(F)c(-c4ccc(OCCCN5CCCCC5)nc4)cc3c21 + CN(C)c1ccc(Nc2c3ccc(NC(=O)CCN4CCCC4)cc3nc3cc(NC(=O)CCN4CCCC4)ccc23)cc1 ? 35.4

How about C=CCn1c(=O)c2cnc(Nc3ccc(N4CCN(C)CC4)cc3)nc2n1-c1cccc(C(C)(C)O)n1 + CN(C)c1ccc(Nc2c3ccc(NC(=O)CCN4CCCC4)cc3nc3cc(NC(=O)CCN4CCCC4)ccc23)cc1 ? 2.51

How about CC(C)n1c(=O)n(C)c2cnc3cc(F)c(-c4ccc(OCCCN5CCCCC5)nc4)cc3c21 + Cc1cnc(CNC(=O)c2c(=O)c3ccc(N4CCCN(C)CC4)nc3n3c2sc2ccccc23)cn1 ? 24.8

How about CC1COCCN1c1cc(C2(O)CC3CCC(C2)O3)c2cnn(-c3ccn[nH]3)c2n1 (stereo not given) + CN(C)c1ccc(Nc2c3ccc(NC(=O)CCN4CCCC4)cc3nc3cc(NC(=O)CCN4CCCC4)ccc23)cc1 ? 6.84

Cited source for all entries: PubChem BioAssay AID2060490
